Data credit: patent US9839632B2

# testName: Blood and brain microdialysis (unbound concentrations) in male CD-IGS rats after single p.o. administration
# Format: in vivo, rat
# testConditions: male, CD-IGS, rat, oral, 50 mg/kg; crossed the blood brain barrier; rats; read-out: CNS penetration
assayEndpoint: Kp

Kp reported for this compound Nc1cccc2c1C(=O)N(C1CCC(=O)NC1=O)C2=O (stereo not shown) [Pomalidomide] : ~0.39

====

# testName: Blood and brain microdialysis (unbound concentrations) in male CD-IGS rats after single p.o. administration
# Type: in vivo, rat
# testConditions: rat, brain (striatum) microdialysate, po; microdialysis, male CD-IGS rats, single p.o. 50 mg/kg, n = 3; read-out: Tmax, unbound, Brain
assayEndpoint: Tmax (h)
Numbers only here, please. The scale is h.

Tmax reported for this compound Nc1cccc2c1C(=O)N(C1CCC(=O)NC1=O)C2=O (stereo not shown) [Pomalidomide] : 4.1
